System: smallflower flatsedge
Experiment: Test B flood test smallflower flatsedge
Assay type: in vivo, Cyperus difformis
Conditions: Rate 500 g/ha; Pre-emergence; flood test species; scale 0 to 10 (0 no effect, 10 complete control)
# S. Flatsedge plant response rating per record follows
readout name: S. Flatsedge plant response rating

CC(C)N(C(=O)n1oc(=O)n(C2CC2)c1=O)c1ccc(F)cc1 0
CON=C(Cn1c(=O)on(C(=O)N(c2ccc(F)cc2)C(C)C)c1=O)C(F)(F)F 0
CCCCCn1c(=O)on(C(=O)N(c2ccc(F)cc2)C(C)C)c1=O 0

----------
System: velvetleaf
Assay: Test B pre/postemergence velvetleaf
Type: in vivo, Abutilon theophrasti
Conditions: Postemergence, Rate 500 g/ha; scale 0 to 10, 0 is no effect, 10 is complete control
# Plant response rating, Velvetleaf per record follows

compound	measured target	Plant response rating, Velvetleaf
CCC=CCn1c(=O)on(C(=O)N(c2ccc(Cl)cc2)C(C)C)c1=O	velvetleaf	3
CC(C)N(C(=O)n1oc(=O)n(CCCCF)c1=O)c1ccc(Cl)cc1	velvetleaf	3
CC(C)N(C(=O)n1oc(=O)n(CCC(F)(F)F)c1=O)c1ccc(F)cc1F	velvetleaf	3
CC(=O)C(C)n1c(=O)on(C(=O)N(c2ccc(F)cc2F)C(C)C)c1=O (centres unmarked)	velvetleaf	6
CC(C)C(=O)Cn1c(=O)on(C(=O)N(c2ccccc2)C(C)C)c1=O	velvetleaf	4
